Record set of IC50 for target or system human 11β-HSD1 (Homo sapiens).
Output spec: scalar in nM, unitless text.

> print(dat)
                                   molecule                   testedtarget  unitspec  number
1  CC1(C)OC(N[C@@H](CCO)c2ccccc2F)=NS(=O)(=O)[C@@H]1c1ccc(-c2ccnc(C(N)=O)c2)cc1  human 11β-HSD1 (Homo sapiens)        nM       5
2  CC1(C)OC(N[C@@H](CCO)c2ccccc2F)=NS(=O)(=O)C1c1ccc(-c2cscn2)cc1 (stereo partly shown)  human 11β-HSD1 (Homo sapiens)        nM       5
3  C[C@H](NC1=NS(=O)(=O)C(c2ccccc2)C(C)(C)O1)c1ccccc1F (stereo partly shown)  human 11β-HSD1 (Homo sapiens)        nM      10
4  CC1(C)OC(N[C@@H](CCO)c2ccccc2F)=NS(=O)(=O)C1c1ccc(-c2ccc(C#N)cc2)cc1 (stereo partly shown)  human 11β-HSD1 (Homo sapiens)        nM       6

Prompt line: Item: CN1CCN(c2cnc(-c3ccc(C4C(C)(C)OC(N[C@@H](CCO)c5ccccc5F)=NS4(=O)=O)cc3)cn2)CC1 (stereo partly shown) Test system: human 11β-HSD1 (Homo sapiens) Read-out: IC50 Value: ?
Response line: 7

Prompt line: Item: CC1(C)OC(N[C@@H](CCO)c2ccccc2F)=NS(=O)(=O)C1(C)c1cccc(-c2ccc(F)cc2)c1 (stereo partly shown) Test system: human 11β-HSD1 (Homo sapiens) Read-out: IC50 Value: ?
Response line: 22

Prompt line: Item: C[C@H](NC1=NS(=O)(=O)C(c2ccc(N3CCNCC3)cc2)C(C)(C)O1)c1ccccc1F (stereo partly shown) Test system: human 11β-HSD1 (Homo sapiens) Read-out: IC50 Value: ?
Response line: 122

---

Target: UniProtKB P28845
// reported pIC50 for each item listed
Keep in mind that pIC50 stands for -log10 of concentration in molar terms.

Answered examples (4):
> print(dat)
                                   compound  number
1  CC1(C)OC(N[C@@H](CCO)c2ccccc2F)=NS(=O)(=O)C1c1ccc(-c2ccncc2)cc1 (some centres unmarked)    8.22
2  C[C@H](NC1=NS(=O)(=O)C(c2ccc(C3CCN(C4CC4)CC3)cc2)C(C)(C)O1)c1ccccc1F (some centres unmarked)    7.26
3  COc1ccc(-c2ccc(C3C(C)(C)OC(N[C@@H](CCO)c4ccccc4F)=NS3(=O)=O)cc2)cc1 (some centres unmarked)    7.64
4  CC1(C)OC(N[C@@H](CCO)c2ccccc2F)=NS(=O)(=O)C1c1ccc(C2CCN(CCC(F)(F)F)CC2)cc1 (some centres unmarked)    7.89

Prompt line: Field request: pIC50 | item: CC1(C)OC(N[C@@H](CCO)c2ccccc2)=NS(=O)(=O)C1(F)c1cccc(Br)c1 (some centres unmarked)
Response line: 7.40

Prompt line: Field request: pIC50 | item: CC1(C)OC(N[C@@H](CCO)c2ccccc2)=NS(=O)(=O)C1(C)c1cccc(-c2ccccc2)c1 (some centres unmarked)
Response line: 7.34

Prompt line: Field request: pIC50 | item: C[C@H](NC1=NS(=O)(=O)C(C)(c2cccc(N3CCCC3)c2)C(C)(C)O1)c1ccccc1F (some centres unmarked)
Response line: 7.82

Prompt line: Field request: pIC50 | item: C[C@H](NC1=NS(=O)(=O)C(c2ccc(-c3ccnc(C#N)c3)nc2)C(C)(C)O1)c1ccccc1F (some centres unmarked)
Response line: 6.34

Prompt line: Field request: pIC50 | item: C[C@H](NC1=NS(=O)(=O)[C@H](c2ccc(-c3ccnc(C#N)c3)cc2)C(C)(C)O1)c1ccccc1F
Response line: 8.30
